- Tested on: M14 melanoma
- experimentSummary: NCI-60 one-dose screen, 48 h (100 = growth as untreated, 0 = no growth, -100 = all killed)
- appliedConditions: 10 µM unless noted
Compounds without any hit were thinned out: in the full panel of roughly 83,000, 20% have a hit.
reportedEndpoint: growth (%)
Write the number in % without appending the unit.

Clc1ccc2c(NCCNc3nc(N4CCCC4)nc4ccccc34)ccnc2c1 : -71.5
O=C(Nc1ccc(C2=NCCCN2)cc1)c1ccc(C(=O)Nc2ccc(C3=NCCCN3)cc2)nc1 : 102
Cc1cccc(NC(=O)[C@@H]2c3ccccc3C(=O)N(c3ccc(Cl)cc3)[C@H]2c2ccc(Cl)cc2)n1 : 45.8
Cn1cc(-c2ccc(F)c(C(F)(F)F)c2)nc1C1CCN(c2ncnc3[nH]ncc23)CC1 : 83.4

Shifting focus to the compound that follows.
The recorded growth for COc1cc2ncnc(Nc3ccc(O)cc3)c2cc1OC is 79.7
